Assay: RP-TLC determination of chromatographic lipophilicity parameter RMW (Soczewiński–Wachtmeister extrapolation to pure water)
Format: physicochemical
Settings: RP2F254 plates, acetonitrile-water mobile phase
Property measured: RMW
Just the number, please, no unit after it.

Here is how some compounds turned out for RMW.
# Smiles record, Measured value
records = [
    ("CO[C@H]1C[C@@H]2CC[C@@H](C)[C@@](O)(O2)C(=O)C(=O)N2CCCC[C@H]2C(=O)O[C@H]([C@H](C)C[C@@H]2CC[C@H](n3cnnn3)[C@H](OC)C2)CC(=O)[C@H](C)/C=C(\\C)[C@@H](O)[C@@H](OC)C(=O)[C@H](C)C[C@H](C)/C=C/C=C/C=C/1C", 2.7480),
    ("CO[C@H]1C[C@@H]2CC[C@@H](C)[C@@](O)(O2)C(=O)C(=O)N2CCCC[C@H]2C(=O)O[C@H]([C@H](C)C[C@@H]2CC[C@@H](OCCO)[C@H](OC)C2)CC(=O)[C@H](C)/C=C(\\C)[C@@H](O)[C@@H](OC)C(=O)[C@H](C)C[C@H](C)/C=C/C=C/C=C/1C", 2.8557),
    ("CC(=O)NC[C@H]1CN(c2ccc(N3CCSCC3)c(F)c2)C(=O)O1", 1.4312),
    ("CC(C)(O/N=C(\\C(=O)N[C@@H]1C(=O)N2C(C(=O)[O-])=C(C[n+]3ccccc3)CS[C@H]12)c1csc(N)n1)C(=O)O", "−0.0357"),
]

Value of RMW reported for the compound Nc1nc(-n2cc(C(=O)O)c(=O)c3cc(F)c(N4CC(O)C4)c(Cl)c32)c(F)cc1F is 0.6615

====

Test: RP-TLC determination of chromatographic lipophilicity parameter RMW (Soczewiński–Wachtmeister extrapolation to pure water)
Format: physicochemical
Conditions: RP18F254 plates, ethanol–water mobile phase
Experimental: Thin-layer chromatography aluminum plates (20 cm × 20 cm, 0.25 mm) precoated with silica gel RP18F254, and glass plates coated with silica gel RP18WF254 (20 cm × 10 cm) and silica gel RP2F254 (10 cm × 10 cm) were obtained from Merck (Darmstadt, Germany). The chromatographic analysis was carried out according to the procedure described earlier on RP-TLC plates (RP2F254, RP18F254, RP18WF254) as a stationary phase using three different mobile phases. […]
Property measured: RMW
Just the number, please, no unit after it.

# Compound, RMW
data = [
    ("CO[C@H]1C[C@@H]2CC[C@@H](C)[C@@](O)(O2)C(=O)C(=O)N2CCCC[C@H]2C(=O)O[C@H]([C@H](C)C[C@@H]2CC[C@H](n3cnnn3)[C@H](OC)C2)CC(=O)[C@H](C)/C=C(\\C)[C@@H](O)[C@@H](OC)C(=O)[C@H](C)C[C@H](C)/C=C/C=C/C=C/1C [Zotarolimus, zotarolimus]", 3.1105),
    ("CO[C@H]1C[C@@H]2CC[C@@H](C)[C@@](O)(O2)C(=O)C(=O)N2CCCC[C@H]2C(=O)O[C@H]([C@H](C)C[C@@H]2CC[C@@H](OCCO)[C@H](OC)C2)CC(=O)[C@H](C)/C=C(\\C)[C@@H](O)[C@@H](OC)C(=O)[C@H](C)C[C@H](C)/C=C/C=C/C=C/1C [Everolimus, everolimus]", 3.5637),
    ("Nc1nc(-n2cc(C(=O)O)c(=O)c3cc(F)c(N4CC(O)C4)c(Cl)c32)c(F)cc1F [Delafloxacin, delafloxacin]", 2.1359),
    ("CC(C)(O/N=C(\\C(=O)N[C@@H]1C(=O)N2C(C(=O)[O-])=C(C[n+]3ccccc3)CS[C@H]12)c1csc(N)n1)C(=O)O [Ceftazidime, ceftazidime]", "−2.9545"),
]

Value of RMW reported for the compound CC(=O)NC[C@H]1CN(c2ccc(N3CCSCC3)c(F)c2)C(=O)O1 [Sutezolid, sutezolid] is 1.8680
